procedure-text: inhibitors of TNFa-induced NFkB p65 translocation, primary screen, imaging, HUVEC, MLSMR starter and 10KST1 sets (AID 438);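 further: compound added about 3h40 before a 20 min TNFalpha stimulation; signal is the nuclear over cytoplasmic p65 intensity ratio per well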
condition-parameters: HUVEC TNFa-induced p65 nuclear translocation; at 2 µM, hits give high values, 0% TNFa-plus-vehicle, 100% no-TNFa wells
measured-property: inhibition (%)

>  <compound>
CCOC(=O)N1CCN(C(=O)C2CC(=O)N(Cc3ccc(OC)cc3)C2)CC1 (stereo unspecified)

>  <units-text>
%

>  <numeric-value>
-14.6

$$$$
>  <compound>
Cc1occc1C(=O)N1CCN(c2ncccn2)CC1

>  <units-text>
%

>  <numeric-value>
-12.5

$$$$
>  <compound>
COc1ccc(Br)cc1S(=O)(=O)N1CCOCC1

>  <units-text>
%

>  <numeric-value>
5

$$$$
>  <compound>
Cc1ccc(-n2c(Cc3cccn3C)nnc2SCC(=O)NCc2ccc3c(c2)OCO3)cc1

>  <units-text>
%

>  <numeric-value>
-12.9

$$$$
>  <compound>
COc1cc(OC)cc(C(=O)NCc2n[nH]c(=S)n2-c2ccccc2OC)c1

>  <units-text>
%

>  <numeric-value>
0

$$$$
>  <compound>
CN1C(=O)CC(C(=O)Nc2ccc(F)cc2)SC1=Nc1ccc2c(c1)OCO2 (stereo unspecified)

>  <units-text>
%

>  <numeric-value>
-5.4

$$$$
>  <compound>
FC(F)(F)c1nnc2ccc(NCn3nnc4ccccc43)nn12

>  <units-text>
%

>  <numeric-value>
-27.6

$$$$
>  <compound>
CCSc1nc(O)c(CC)c(=O)n1C(C)CC (stereo unspecified)

>  <units-text>
%

>  <numeric-value>
2.1

$$$$
>  <compound>
Cc1ccccc1NC(=O)C1CCCN(S(=O)(=O)c2cccc3cccnc23)C1 (stereo unspecified)

>  <units-text>
%

>  <numeric-value>
6.8

$$$$
>  <compound>
CC1(C)CC(=O)C(C=Nc2ccncc2)=C(O)C1

>  <units-text>
%

>  <numeric-value>
4.9

$$$$
>  <compound>
Cc1ccc2c(c1)C(N1CCCC1=O)CC(c1ccco1)N2 (stereo unspecified)

>  <units-text>
%

>  <numeric-value>
0

$$$$

----------
measurement-target: Muscarinic acetylcholine receptor M4 (Homo sapiens)
procedure-text: M4-linked GIRK flux change, two-sided – cell-based, HEK293 M4/GIRK, thallium flux, BTC-AM, M4 allosteric agonist project, primary screen (AID 625);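 further: thallium influx through GIRK channels coupled to M4 in HEK293 cells with BTC-AM dye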
condition-parameters: at 10 µM, actives lie on both sides
Catalogue of fluorescence slope values

>  <compound>
Cc1nn(-c2ccccc2)c2c1C(c1c(C)[nH]c(C#N)c1C)C(C#N)=C(N)O2 (stereo not drawn)

>  <fluorescence slope>
0.00623

$$$$
>  <compound>
CCn1ncc(C2=NOC(C(=O)NCc3ccccc3)C2)c1C (stereo not drawn)

>  <fluorescence slope>
0.00637

$$$$
>  <compound>
C=C(c1cccc2ccccc12)P(=O)(O)O

>  <fluorescence slope>
0.00428

$$$$
>  <compound>
CCC1Cc2c(nc3c4c(nc(N5CCOCC5)c(C#N)c24)NC(C)=N3)O1 (stereo not drawn)

>  <fluorescence slope>
0.00571

$$$$
>  <compound>
Cc1cc(C)n2cc(CSCc3ccco3)nc2n1

>  <fluorescence slope>
0.00628

$$$$
>  <compound>
CSC1=C(C#N)C(c2ccc(C)cc2)C2=C(CCCC2=O)N1 (stereo not drawn)

>  <fluorescence slope>
0.00661

$$$$
>  <compound>
COc1cccc(OC)c1C(=O)N1CCN(S(=O)(=O)c2ccccc2)CC1

>  <fluorescence slope>
0.00446

$$$$
>  <compound>
CCCCOc1ccc(C(=O)Nc2ccc(N3CCN(C(=O)C(C)C)CC3)cc2)cc1

>  <fluorescence slope>
0.0053

$$$$
>  <compound>
CCCCSc1nc2c(cnn2-c2ccc(Cl)cc2)c(=O)[nH]1

>  <fluorescence slope>
0.00579

$$$$
>  <compound>
CCCC1CCC(C(=O)Nn2c(C)nc3ccccc3c2=O)CC1 (stereo not drawn)

>  <fluorescence slope>
0.00445

$$$$
>  <compound>
CC(C)(C)OC(=O)N1CCN(c2ccc(NC(=O)c3cc4ccccc4oc3=O)cc2)CC1

>  <fluorescence slope>
0.0076

$$$$
>  <compound>
COc1ccccc1-c1nc(C#N)c(N2CCN(c3ccccc3)CC2)o1

>  <fluorescence slope>
0.00604

$$$$
>  <compound>
Cc1cc(C)n(Cc2nc3ccccc3n2C)n1

>  <fluorescence slope>
0.0071

$$$$
>  <compound>
O=C(Nc1ccccc1)N1C(=O)C2(OCCO2)c2ccccc21

>  <fluorescence slope>
0.00486

$$$$
>  <compound>
O=C(CCN1CCN(CCO)CC1)Nc1ccc(OCc2ccccc2)cc1

>  <fluorescence slope>
0.00748

$$$$
>  <compound>
CC(=O)NCCn1ccc2ccccc21

>  <fluorescence slope>
0.00841

$$$$
>  <compound>
CC(=O)c1c(C)[nH]c(C(=O)Nc2ccc3c(c2)OCCO3)c1C

>  <fluorescence slope>
0.00406

$$$$
>  <compound>
O=C(Nc1ccc(CN2CCOCC2)cc1)c1cc2ccccc2oc1=O

>  <fluorescence slope>
0.00463

$$$$
>  <compound>
COc1ccc(-c2cc(C(=O)NCc3ccc(Cl)cc3)no2)cc1OC

>  <fluorescence slope>
0.00727

$$$$
>  <compound>
COc1ccc(OCCCC(=O)Nc2ccc3c(c2)OCCO3)cc1

>  <fluorescence slope>
0.00647

$$$$
>  <compound>
CCOC(=O)c1ccccc1NC(=O)COC(=O)C1=COCCO1

>  <fluorescence slope>
0.00593

$$$$
>  <compound>
CCOC(=O)CSc1nnc(-c2cccnc2)n1Cc1ccccc1

>  <fluorescence slope>
0.00573

$$$$
>  <compound>
COC(=O)c1ccc(CSc2nc3c(cnn3-c3ccc(C)c(C)c3)c(=O)[nH]2)o1

>  <fluorescence slope>
0.0057

$$$$

----------
procedure-text: inhibitors of TNFa-induced NFkB p65 translocation, primary screen, imaging, HUVEC, MLSMR starter and 10KST1 sets (AID 438);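 further: compound added about 3h40 before a 20 min TNFalpha stimulation; signal is the nuclear over cytoplasmic p65 intensity ratio per well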
condition-parameters: HUVEC TNFa-induced p65 nuclear translocation; at 2 µM, hits give high values, 0% TNFa-plus-vehicle, 100% no-TNFa wells

>  <compound>
COc1ccc(NS(=O)(=O)c2c(C)[nH]c(=O)[nH]c2=O)c(OC)c1

>  <inhibition / %>
3.8

$$$$
>  <compound>
CCCC1CCC(C(=O)Nn2c(C)nc3ccccc3c2=O)CC1 (stereo unspecified)

>  <inhibition / %>
0

$$$$
>  <compound>
C/C(=C(\C#N)C(=O)NCCCN1CCOCC1)N(C)C

>  <inhibition / %>
-11.2

$$$$
>  <compound>
O=C(c1cccnc1NCc1ccccc1)N1CCOCC1

>  <inhibition / %>
-26.5

$$$$
>  <compound>
CCCc1cn(S(=O)(=O)c2ccc(OC)cc2OC)nc1N

>  <inhibition / %>
-8.7

$$$$
>  <compound>
O=C(c1cnc2sccn2c1=O)N1CCc2ccccc2C1

>  <inhibition / %>
-3

$$$$

----------
procedure-text: endothelial E-selectin expression blockers – imaging, HUVEC, immunofluorescence, MLSMR starter and 10KST1 sets, primary screen (AID 487);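 further: signal is fraction of cell area covered by stained E-selectin grains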
condition-parameters: HUVEC TNFalpha-induced E-selectin immunofluorescence imaging, at 2 µM; hits give high values
Catalogue of inhibition values
measured-property: inhibition (%)

>  <compound>
COC(=O)/C=c1\sc2ncnn2c1=O

>  <numeric-value>
-34.9

$$$$
>  <compound>
O=C(CN1C(=O)COCC1=O)N1CCOCC1

>  <numeric-value>
-35.1

$$$$
>  <compound>
CC(=O)c1c(OC(=O)c2ccco2)c2ccccc2n1C

>  <numeric-value>
-81.6

$$$$
>  <compound>
Oc1ccc(C=Nc2cccc3ncccc23)c(O)c1

>  <numeric-value>
-138

$$$$
>  <compound>
O=C(Nc1ccc(F)cc1)NC1CCN(Cc2nnnn2Cc2ccco2)CC1

>  <numeric-value>
-2.9

$$$$
>  <compound>
CCOC(=O)Cn1c(CN2CCOCC2)nc2c1c(=O)[nH]c(=O)n2C

>  <numeric-value>
-6

$$$$
>  <compound>
CCOCCCNS(=O)(=O)c1ccc2c(c1)oc(=O)n2CC(=O)OCC

>  <numeric-value>
-7.8

$$$$
>  <compound>
CC1CCCN(c2ccc(C(=O)NCc3cccs3)cn2)C1 (stereo unspecified)

>  <numeric-value>
-67.5

$$$$
>  <compound>
COc1cccc(N(C(=O)c2ccco2)C(C(=O)NC2CCCC2)c2ccc(N(C)C)cc2)c1 (stereo unspecified)

>  <numeric-value>
5.4

$$$$
>  <compound>
O=C(NCCCN1CCN(c2cccc(Cl)c2)CC1)c1ccc(N2CCCC2=O)cc1

>  <numeric-value>
46.9

$$$$
>  <compound>
CCCc1cn(S(=O)(=O)c2ccc(OC)cc2OC)nc1N

>  <numeric-value>
-38.9

$$$$
